biological target: E3 ubiquitin-protein ligase XIAP (Homo sapiens, UniProt P98170); experiment: Inhibition of XIAP BIR3 domain at 10 to 100 uM by competitive fluorescence polarization binding assay relative to 1 uM BV6 control
Sequence (P98170 whole entry, the tested form may be a part): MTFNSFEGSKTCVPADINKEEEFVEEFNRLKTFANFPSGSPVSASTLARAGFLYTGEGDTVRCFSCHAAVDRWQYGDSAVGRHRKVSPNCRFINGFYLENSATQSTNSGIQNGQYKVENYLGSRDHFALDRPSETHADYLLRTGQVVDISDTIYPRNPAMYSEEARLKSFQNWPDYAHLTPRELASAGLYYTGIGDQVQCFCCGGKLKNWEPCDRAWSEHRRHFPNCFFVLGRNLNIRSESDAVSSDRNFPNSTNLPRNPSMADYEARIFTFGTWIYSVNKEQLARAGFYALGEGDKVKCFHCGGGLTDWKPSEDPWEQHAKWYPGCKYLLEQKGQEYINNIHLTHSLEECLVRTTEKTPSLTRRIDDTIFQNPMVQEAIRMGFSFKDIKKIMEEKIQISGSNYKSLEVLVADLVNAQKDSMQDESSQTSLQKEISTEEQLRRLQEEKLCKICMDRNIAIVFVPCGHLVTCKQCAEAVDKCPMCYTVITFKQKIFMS
The source made the active and inactive calls. No cut-off for these calls is given here.
// classify into active, inactive

Consider the following illustrative entries.
• CN[C@@H](C)C(=O)Nc1nc2c(s1)CC[C@H]2C(=O)N[C@@H]1CCCc2ccccc21 = active
• CN[C@@H](C)C(=O)Nc1nc2c(s1)CCC2C(=O)NC1CCCc2ccccc21 (mixture of isomers) = inactive
• CN[C@@H](C)C(=O)Nc1nc2c(s1)CC[C@H]2C(=O)N[C@H]1CCCc2ccccc21 = inactive

Now consider a different compound.
Fill in: this test's call for CN[C@@H](C)C(=O)Nc1nc2c(s1)CC[C@@H]2C(=O)NC1CCCc2ccccc21 (mixture of isomers) is ___ inactive
